Would you kindly list cytotoxicity at 10 µM for each of these compounds?
test: Toxicity liver stage against HepG2, at 10uM; type: cell-based; parameters: test concentration 10 uM, cell line HepG2-A16-CD81EGFP; conditions: human, HepG2-A16-CD81EGFP cells; read-out: INHIBITION
Give bare numbers, in %.

A selection of reference data follows.
COMPOUND | cytotoxicity at 10 µM [%]
COCCCNC(=O)Cn1c(-c2cccc(Cl)c2)nc(C)cc1=O | -8.41
Cc1ccc(NC2CCN(C(=O)c3cccc4cccnc34)CC2)nn1 | -8.31
Cn1nc2c(cc1=O)CN(Cc1ccc(-n3cccn3)cc1)CC2 | -141
COc1ccc(CNC2CCCc3nc(N(C)C)ncc32)c(OC)c1 (stereo not drawn) | 1.42

Answer for every listed entry: what is its cytotoxicity at 10 µM? The entries follow.
1. Cc1cnc(N2CCN(C)c3ncccc3C2)nc1
2. O=C(NCC1(O)CCC1)c1c(O)cc(F)cc1F

Key:
-5.86
6.22

----------
Would you kindly list cytotoxicity at 10 µM for each of these molecules?
test: Toxicity liver stage against HepG2, at 10uM; assay type: cell-based; set-up: test concentration 10 uM, cell line HepG2-A16-CD81EGFP; settings: human, HepG2-A16-CD81EGFP cells; read-out: INHIBITION
Answers are plain numbers, in %.

A selection of reference data follows.
MOLECULE | cytotoxicity at 10 µM / %
CC(C)N1c2sc(-c3ccccc3)nc2CC1C(=O)NC1CCCC1 (configuration not stated) | 10.3
Cc1nn(CCC(=O)NC(C(=O)O)c2c(C)n[nH]c2C)c(C)c1C (configuration not stated) | -2.72

Answer for every listed entry: what is its cytotoxicity at 10 µM? The entries follow.
1. COc1ccc(C)cc1NC(=O)Cn1nc(C)c(C#N)c1N
2. CCc1cc(NC(=O)C2CCCN(C(=O)c3ccncc3)C2)[nH]n1 (configuration not stated)
3. CCn1cnnc1C1CCN(C(=O)COc2ccccc2)CC1

Key:
[-22.9, -8.18, 1.3]

Answer for every listed entry: what is its cytotoxicity at 10 µM? The entries follow.
1. Cc1cc(CNC(=O)N(Cc2ccc(F)cc2F)C2CC2)no1
2. O=C(NCC1Cn2nnc(-c3cccc(F)c3)c2CO1)c1ccc[nH]1 (configuration not stated)

Key:
1. -18.5
2. 1.46

----------
assay: Toxicity liver stage against HepG2, at 10uM; format: cell-based; parameters: test concentration 10 uM, cell line HepG2-A16-CD81EGFP; conditions: human, HepG2-A16-CD81EGFP cells; read-out: INHIBITION
QUANTITY: cytotoxicity at 10 µM (%)
One number for each entry, in %.

A selection of reference data follows.
COMPOUND | cytotoxicity at 10 µM (%)
c1cc(CNCC2Cn3nncc3CO2)ccn1 (stereo not drawn) | 6.62
c1csc(-c2noc(COCC3CCCO3)n2)c1 (stereo not drawn) | -1.62
COc1ccc(NC(=O)N(CCO)Cc2ccsc2)c(OC)c1 | 12.2
COC(C)(C)C(=O)NCC1CCN(Cc2cc3ccccc3[nH]2)C1 (stereo not drawn) | 5.85
Cc1ccccc1C(C)NC(=O)CN1CCN(Cc2ccc(Cl)s2)CC1 (stereo not drawn) | 10.8

Answer for every listed entry: what is its cytotoxicity at 10 µM? The entries follow.
1. O=C(c1cc[nH]n1)N1CCCC1C1CCN(Cc2ccccc2)CC1 (stereo not drawn)
2. CCc1noc(C2CCCCN2C(=O)c2sccc2C)n1 (stereo not drawn)
3. CN1CCC/C1=N\S(=O)(=O)c1ccc(NC(=O)c2ccc(Cl)cc2)cc1
4. OCCCN1CCc2[nH]nc(C(c3ccccc3)c3ccccc3)c2C1
5. CN(C)C(=O)c1cccc(CCNS(C)(=O)=O)c1
6. CN(C)C(=O)CN1CCC2(CCCN(Cc3ccoc3)C2)C1=O (stereo not drawn)

Key:
1. 1.98
2. 10.3
3. -0.383
4. -0.869
5. -6.46
6. -103

Answer for every listed entry: what is its cytotoxicity at 10 µM? The entries follow.
1. CCn1ncc2[nH]c(-c3cc4c(cc3OC)OCO4)nc21
2. CN(CCCOc1ccccc1)S(=O)(=O)N1CCOCC1

Key:
1: -2.99; 2: 4.38
